Source of measurements: ChEMBL document CHEMBL1126033

test: Bioavailability in monkey (i.d. dosing); format: ADME, organism-based; conditions: cercopithecidae, in vivo
Value kind: bioavailability (%)
Your answer is read as %, so omit the unit and give the number.

Entry `COc1ccc(C[C@H](NC(=O)CC(C)(C)N)C(=O)N[C@@H](Cc2cnc[nH]2)C(=O)N[C@@H](CC2CCCCC2)[C@@H](O)[C@@H](O)CC(C)C)cc1` : reported bioavailability = ?
1.7

###

experiment: Partition coefficient (logD7.4); details: octanol/water, pH 7.4
The compounds listed here are annotated with their logD.
Lab note: write the figure by itself, no unit.

Known logD results, listed for orientation:
Smiles | Value
CCCC[C@H](N[C@@H](Cc1ccccc1)C(=O)N1CCC(OCOC)CC1)C(=O)N[C@@H](CC1CCCCC1)[C@@H](O)C[C@H](NC(=O)OCCN1CCOCC1)C(C)C | 4.3
CCCC[C@H](O[C@@H](Cc1ccccc1)C(=O)N1CCC(OCOC)CC1)C(=O)N[C@@H](CC1CCCCC1)[C@@H](O)C[C@H](C(=O)N(C)CCCN(C)C)C(C)C | 3.7
CCCC[C@H](O[C@@H](Cc1ccccc1)C(=O)N1CCC(OCOC)CC1)C(=O)N[C@@H](CC1CCCCC1)[C@@H](O)C[C@H](C(=O)NCCCN(C)C)C(C)C | 3.1
CCCC[C@H](N[C@@H](Cc1ccccc1)C(=O)N1CCC(OCOC)CC1)C(=O)N[C@@H](CC1CCCCC1)[C@@H](O)C[C@H](C(=O)NCCCN1CCOCC1)C(C)C | 4.5
CCCC[C@H](N[C@@H](Cc1ccccc1)C(=O)N1CCC(OCOC)CC1)C(=O)N[C@@H](CC1CCCCC1)[C@@H](O)C[C@H](C(=O)NCCCN(C)C)C(C)C | 2.8

Entry `CCCC[C@H](O[C@@H](Cc1ccccc1)C(=O)N1CCC(OCOC)CC1)C(=O)N[C@@H](CC1CCCCC1)[C@@H](O)C[C@H](NC(=O)OCCCN(C)C)C(C)C` : reported logD = ?
3.8

And for `CCCC[C@H](O[C@@H](Cc1ccccc1)C(=O)N1CCC(OCOC)CC1)C(=O)N[C@@H](CC1CCCCC1)[C@@H](O)C[C@H](NC(=O)OCCN1CCOCC1)C(C)C` ?
3.7

And for `CCCC[C@H](N[C@@H](Cc1ccccc1)C(=O)N1CCC(OCOC)CC1)C(=O)N[C@@H](CC1CCCCC1)[C@@H](O)C[C@H](NC(=O)OCCN(C)C)C(C)C` ?
4.6

And for `CCCCNC(=O)[C@@H](C[C@H](O)[C@H](CC1CCCCC1)NC(=O)[C@H](CCCC)O[C@@H](Cc1ccccc1)C(=O)N1CCC(OCOC)CC1)C(C)C` ?
4.7
